Attribution: ChEMBL document CHEMBL5608113

Collected viability at 10 µM values appear next to each entry.
- Tested on: Colon cancer organoid
- PROTOCOL TEXT: Targeting of F14 CAF-induced therapy resistance in O23 CRC organoid-stroma co-culture. Cell viability is reported with SN-38.
- Assay type: functional, Homo sapiens
- SETUP CONDITIONS: Homo sapiens, Concentration 10 uM; read-out: Cell Viability
All answers are understood in %, so give the number only.

The examples below pair each entry with its known result.
Would you mind telling me what viability at 10 µM value was observed for CCNC(=O)c1cc2c(N3CCOC[C@@H]3C)ccnc2n1C ?
84.1

Recorded viability at 10 µM for COc1nc2ccc([C@@](O)(c3ccccc3)C3CCN(C(C)=O)CC3)cc2c(Cl)c1Cc1ccc(-n2cccn2)cc1 , please?
62.6

Which viability at 10 µM is reported for this compound? CNCc1ccccc1-c1csc([C@@H](C)Nc2nc(C)nc3cc(OC)c(OC)cc23)c1
50.2

Record request: viability at 10 µM value, item Cc1nnc2c3ccccc3c(N[C@@H](C)[C@H](c3ccccc3)N(C)C)nn12
141

Bench note: what viability at 10 µM did Cn1cc(CCn2cnc(-c3cnn(C)c3)c2-c2ccc(C#N)cc2)cn1 show?
92.5

Requested field: viability at 10 µM. Item: O=C(NCc1ccccc1)c1ccc(S(=O)(=O)NCc2ccccc2)cc1
82.9

Name the reported viability at 10 µM value associated with the compound O=C(N1CCS(=O)(=O)CC1)N1C[C@H](c2ccc(OC(F)(F)F)cc2)C[C@H](c2nc(C3CC3)no2)C1
74.8

Form field: reported viability at 10 µM of CCc1ccccc1C(=O)Nc1n[nH]c2c(C)c(F)c(C3C(C#N)=C(C)N(C)C(C)=C3C#N)cc12
14.5

What measured viability at 10 µM goes with CCOCCn1cc(C(=O)Nc2ccc(-n3nc(-c4cccnc4)cc3C(F)(F)F)cn2)ccc1=O ?
64.4

# context switch: different compound, same viability at 10 µM
Which viability at 10 µM is listed for CCNC(=O)c1cc2c(-c3cc(C(C)(C)O)ccc3Oc3c(C)cc(F)cc3C)cn(C)c(=O)c2[nH]1 ?
75.1
